Source of measurements: patent US20120302503A1

# Tested on: THP-1 cell line
# experiment.description: Cell proliferation assay (Promega Cell Titer-Glo) using cell line THP-1
# Assay type: cell-based
# condition.set: THP-1 tumor cells, 96 total hours of culture, Cell Titer-Glo luminescence, Table 1; read-out: IC50 values
pIC50: −log10 of the molar value.
parameter: pIC50

>>> print(df.to_string())
                                   compound  recorded_number
0  N.N.[Cl][Pt][Cl] [Cisplatin, cisplatin, reference compound]             5.80
